target: TRPC5-SYFP2 (TRPC5:C5 channels) (Homo sapiens, UniProt Q9UL62); experiment: [Ca2+]i measurement (Fura-2, FlexStation) in (Tet+) HEK T-REx cells expressing hTRPC5-SYFP2; details: Control (DMSO pretreatment), competition experiment; read-out: EC50, activation
Sequence (Q9UL62 whole entry): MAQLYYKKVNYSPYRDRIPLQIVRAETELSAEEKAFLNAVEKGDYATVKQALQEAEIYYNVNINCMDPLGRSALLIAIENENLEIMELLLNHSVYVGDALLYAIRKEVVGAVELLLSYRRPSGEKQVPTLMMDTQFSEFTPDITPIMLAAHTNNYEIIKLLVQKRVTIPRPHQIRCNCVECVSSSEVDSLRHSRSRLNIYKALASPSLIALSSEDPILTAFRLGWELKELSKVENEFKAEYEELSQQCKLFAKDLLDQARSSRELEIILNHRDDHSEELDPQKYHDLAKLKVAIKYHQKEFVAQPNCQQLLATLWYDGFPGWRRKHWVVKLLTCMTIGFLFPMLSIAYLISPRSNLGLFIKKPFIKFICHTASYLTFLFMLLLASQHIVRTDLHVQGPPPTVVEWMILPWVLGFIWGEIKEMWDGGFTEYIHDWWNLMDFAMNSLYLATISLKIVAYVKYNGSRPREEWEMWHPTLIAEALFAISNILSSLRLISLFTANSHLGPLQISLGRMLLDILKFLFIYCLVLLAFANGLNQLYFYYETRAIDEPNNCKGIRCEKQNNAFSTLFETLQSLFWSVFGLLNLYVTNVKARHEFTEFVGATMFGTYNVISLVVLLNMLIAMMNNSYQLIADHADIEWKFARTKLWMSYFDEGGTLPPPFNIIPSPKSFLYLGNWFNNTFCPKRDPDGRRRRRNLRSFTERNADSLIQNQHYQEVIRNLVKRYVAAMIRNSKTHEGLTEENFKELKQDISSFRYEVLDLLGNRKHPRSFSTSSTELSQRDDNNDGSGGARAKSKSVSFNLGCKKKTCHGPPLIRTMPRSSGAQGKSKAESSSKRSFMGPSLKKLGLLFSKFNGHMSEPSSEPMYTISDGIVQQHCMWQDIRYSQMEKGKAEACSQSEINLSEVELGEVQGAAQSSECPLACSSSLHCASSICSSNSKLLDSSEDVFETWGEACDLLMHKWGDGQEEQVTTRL
pEC50: −log10 of the molar value.
OBSERVED_PROPERTY: pEC50

{"columns": ["STRUCTURE_NOTATION", "ASSAYED_SYSTEM", "READING"],
 "data": [
  ["Cn1c(=O)n(CCCO)c(=O)c2c1nc(Oc1ccc(Cl)c(OC(F)(F)F)c1)n2Cc1ccc(Cl)cc1", "TRPC5-SYFP2 (TRPC5:C5 channels) (Homo sapiens, UniProt Q9UL62)", 8.00]
]}

* * *

biological target: native TRPC1:C4 channels in A498 cells (Homo sapiens, UniProt P48995+Q9UBN4); construct: A498 renal carcinoma cells, which endogenously express TRPC1:C4 channels; endogenous in cells; test: [Ca2+]i measurement in A498 renal carcinoma cells; details: AM237 pretreatment, then EA; read-out: IC50, inhibition of EA-mediated increase in [Ca2+]i
Sequence (Q9UBN4 whole entry): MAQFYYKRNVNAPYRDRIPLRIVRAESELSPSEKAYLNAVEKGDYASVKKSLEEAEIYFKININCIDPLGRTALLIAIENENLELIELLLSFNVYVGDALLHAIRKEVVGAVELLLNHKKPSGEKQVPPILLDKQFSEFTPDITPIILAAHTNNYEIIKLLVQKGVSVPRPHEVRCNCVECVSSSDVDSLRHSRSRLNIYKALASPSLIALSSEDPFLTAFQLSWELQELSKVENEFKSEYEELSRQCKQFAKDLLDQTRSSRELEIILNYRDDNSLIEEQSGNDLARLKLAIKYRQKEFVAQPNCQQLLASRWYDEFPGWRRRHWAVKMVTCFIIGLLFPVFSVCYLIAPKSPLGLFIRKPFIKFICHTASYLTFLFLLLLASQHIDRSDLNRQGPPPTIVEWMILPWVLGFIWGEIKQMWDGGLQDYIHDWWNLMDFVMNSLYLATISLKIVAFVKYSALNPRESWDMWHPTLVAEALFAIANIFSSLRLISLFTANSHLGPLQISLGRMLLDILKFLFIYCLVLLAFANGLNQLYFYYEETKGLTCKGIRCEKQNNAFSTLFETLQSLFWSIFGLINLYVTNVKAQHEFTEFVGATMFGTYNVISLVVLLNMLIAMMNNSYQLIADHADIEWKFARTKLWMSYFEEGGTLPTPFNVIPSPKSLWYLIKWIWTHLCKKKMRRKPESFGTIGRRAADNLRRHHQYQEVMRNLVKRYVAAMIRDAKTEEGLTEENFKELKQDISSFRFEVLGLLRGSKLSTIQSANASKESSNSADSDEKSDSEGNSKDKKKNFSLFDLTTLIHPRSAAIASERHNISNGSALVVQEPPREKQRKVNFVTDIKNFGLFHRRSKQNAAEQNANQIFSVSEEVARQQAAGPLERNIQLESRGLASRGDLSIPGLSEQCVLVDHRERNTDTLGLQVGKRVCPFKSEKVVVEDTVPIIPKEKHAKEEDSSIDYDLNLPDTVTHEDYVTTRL
Sequence (P48995 whole entry): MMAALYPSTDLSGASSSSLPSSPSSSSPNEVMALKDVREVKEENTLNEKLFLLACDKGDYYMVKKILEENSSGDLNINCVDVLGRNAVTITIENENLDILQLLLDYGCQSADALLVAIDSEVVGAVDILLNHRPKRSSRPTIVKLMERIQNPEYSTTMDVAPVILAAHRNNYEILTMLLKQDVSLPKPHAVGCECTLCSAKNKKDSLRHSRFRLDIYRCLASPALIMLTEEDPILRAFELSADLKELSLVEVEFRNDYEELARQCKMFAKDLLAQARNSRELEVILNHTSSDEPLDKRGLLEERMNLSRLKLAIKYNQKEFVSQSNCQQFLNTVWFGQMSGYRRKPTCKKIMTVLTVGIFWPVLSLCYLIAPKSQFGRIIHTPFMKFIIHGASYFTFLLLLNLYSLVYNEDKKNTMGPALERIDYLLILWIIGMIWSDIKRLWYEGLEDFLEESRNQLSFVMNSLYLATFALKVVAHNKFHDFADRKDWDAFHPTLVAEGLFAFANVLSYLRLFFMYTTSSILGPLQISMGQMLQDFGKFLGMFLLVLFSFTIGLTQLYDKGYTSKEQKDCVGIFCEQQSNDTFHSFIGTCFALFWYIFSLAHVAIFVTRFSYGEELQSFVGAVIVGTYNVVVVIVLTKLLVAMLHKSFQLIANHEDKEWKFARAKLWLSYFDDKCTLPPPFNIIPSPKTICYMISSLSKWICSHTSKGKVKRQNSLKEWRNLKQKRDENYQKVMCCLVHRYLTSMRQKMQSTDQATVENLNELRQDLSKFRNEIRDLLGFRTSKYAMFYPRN
pIC50: −log10 of the molar value.

{"columns": ["STRUCTURE_NOTATION", "ASSAYED_SYSTEM", "pIC50"],
 "data": [
  ["Cn1c(=O)n(CCCO)c(=O)c2c1nc(Oc1ccc(Cl)c(OC(F)(F)F)c1)n2Cc1ccc(Cl)cc1", "native TRPC1:C4 channels in A498 cells (Homo sapiens, UniProt P48995+Q9UBN4)", 9.07]
]}

* * *

Target: TRPC5:C5 channels (hTRPC5) (Homo sapiens, UniProt Q9UL62)
Construct: expressed in transfected cells
Sequence (Q9UL62 whole entry): as the sequence (Q9UL62 whole entry) above
Assay: [Ca2+]i measurement (Fura-2, FlexStation) in (Tet+) HEK T-REx cells expressing hTRPC5
Format: cell-based
Details: hTRPC5; response at 250–295 s vs baseline; read-out: EC50, activation (increase in [Ca2+]i)
Description: HEK T‐REx™ cell line was transfected with TRPC5‐SYFP2 or TRPC4‐SYFP2 using FuGENE® HD transfection reagent. After 48 hr, cells were put under antibiotic selection using 400 μg·ml^−1 zeocin and 10 μg·ml^−1 blasticidin S (Invivogen, San Diego, California, USA). Medium changes were carried out regularly to remove dead cells. […]
pEC50: −log10 of the molar value.

{"columns": ["COMPOUND", "pEC50"],
 "data": [
  ["Cn1c(=O)n(CCCO)c(=O)c2c1nc(Oc1ccc(Cl)c(OC(F)(F)F)c1)n2Cc1ccc(Cl)cc1 [AM237]", 7.70]
]}
